test: Concentration in brain of mice,17 hours after administration of final dose at 10 mg/kg, twice a day; format: ADME, organism-based; parameters: dose 10 mg/kg; details: mouse, read-out: Cmax
endpoint label: concentration at 17 h (ng/mL)
Give bare numbers, in ng/mL.

Ask | Identify concentration at 17 h associated with the compound O=C(Cc1ccc(OCc2ccccc2)cc1)Nc1ccc2cnn(CCN3CCCC3)c2c1
Reply | 7.02

* * *

Assign AUC to each entry below.
experiment: Area under concentration time curve in brain of mice following peroral administration at 10 mg/kg; n=3; format: ADME, organism-based; design: dose 10 mg/kg, route oral; settings: mouse, in vivo, po
Give bare numbers, in µg/h/g.

Recorded AUC, per entry:
O=C(Cc1ccc(OCc2ccccc2)cc1)Nc1cccc2c1cnn2CCN1CCCC1	1.18
O=C(Cc1ccc(OCc2ccccc2)cc1)Nc1cccc2nn(CCN3CCCC3)cc12	0.214
O=C(Cc1ccc(OCc2ccccc2)cc1)Nc1ccc2cnn(CCN3CCCC3)c2c1	1.33
O=C(Cc1ccc(OCc2ccccc2)cc1)Nc1ccc2ncn(CCN3CCCC3)c2c1	0.244

Consider now this further compound.
Ask | Give the measured AUC for O=C(Cc1ccc(OCc2ccccc2)cc1)Nc1ccc2c(cnn2CCN2CCCC2)c1
Reply | 10.4

* * *

I'd appreciate it if you could supply Cmax values for the items below.
test: Maximum concentration in brain of mice at 12 hours following peroral administration at 10 mg/kg; n=3; type: ADME, organism-based; parameters: dose 10 mg/kg, route oral; details: mouse, po
Write the figure, then the unit, nothing else.

O=C(Cc1ccc(OCc2ccccc2)cc1)Nc1cccc2nn(CCN3CCCC3)cc12	12.3 ng/g

Each molecule below has a reported value. Please supply its Cmax.
1. O=C(Cc1ccc(OCc2ccccc2)cc1)Nc1ccc2cnn(CCN3CCCC3)c2c1
2. O=C(Cc1ccc(OCc2ccccc2)cc1)Nc1cccc2c1cnn2CCN1CCCC1
3. O=C(Cc1ccc(OCc2ccccc2)cc1)Nc1ccc2c(cnn2CCN2CCCC2)c1

Reply |
1: 29 ng/g; 2: 8.11 ng/g; 3: 76 ng/g

* * *

Provide the recorded pIC50 for the entries that follow.
target: Melanin-concentrating hormone receptor 1 (Homo sapiens, UniProt Q99705); assay: Inhibition of melanin concentrating hormone receptor 1 from human neuronal IMR-32 cells; type: cell-based
Sequence (Q99705 whole entry): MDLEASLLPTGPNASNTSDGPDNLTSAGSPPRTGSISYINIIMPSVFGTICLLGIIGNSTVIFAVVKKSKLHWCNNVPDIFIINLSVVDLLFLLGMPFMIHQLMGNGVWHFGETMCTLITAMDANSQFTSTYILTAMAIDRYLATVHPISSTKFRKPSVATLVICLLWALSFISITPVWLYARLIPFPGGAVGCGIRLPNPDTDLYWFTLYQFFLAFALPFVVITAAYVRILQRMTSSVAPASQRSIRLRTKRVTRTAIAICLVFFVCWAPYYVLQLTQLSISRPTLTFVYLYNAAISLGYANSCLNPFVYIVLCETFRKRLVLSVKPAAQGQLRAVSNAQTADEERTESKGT
Numbers only, as −log10 of the molar value.

Examples with their reported pIC50 follow.
O=C(CNCc1ccc(Oc2ccccc2)cc1)Nc1ccc2ncn(CCN3CCCC3)c2c1	6.52
O=C(Cc1ccc(OCc2ccccc2)cc1)Nc1cccc2c1cnn2CCN1CCCC1	7.61
O=C(Cc1ccc(OCc2ccccc2)cc1)Nc1ccc2ncn(CCN3CCCC3)c2c1	6.79
O=C(Cc1ccc(OCc2ccccc2)cc1)Nc1cccc2nn(CCN3CCCC3)cc12	7.38
O=C(Cc1ccc(OCc2ccccc2)cc1)Nc1ccc2cn(CCN3CCCC3)nc2c1	6.84
O=C(Cc1ccc(OCc2ccccc2)cc1)Nc1ccc2c(cnn2CCN2CCCC2)c1	6.25
O=C(Cc1ccc(OCc2ccccc2)cc1)Nc1ccc2c(c1)ncn2CCN1CCCC1	6.11
O=C(Cc1ccc(OCc2ccccc2)cc1)Nc1ccc2nn(CCN3CCCC3)cc2c1	5.70
O=C(Cc1ccc(OCc2ccccc2)cc1)Nc1ccc2ccn(CCN3CCCC3)c2c1	7.66

Here is the next item to consider.
Ask | Look up and report measured pIC50 for this entry: O=C(Cc1ccc(OCc2ccccc2)cc1)Nc1ccc2cnn(CCN3CCCC3)c2c1
Reply | 8.85

* * *

test: Concentration in plasma of mice,1 hour after administration of final dose at 10 mg/kg, twice a day; type: ADME, organism-based; parameters: dose 10 mg/kg; details: mouse, read-out: Cmax
endpoint label: concentration at 1 h

Ask | Hello, please tell me recorded concentration at 1 h for this one: O=C(Cc1ccc(OCc2ccccc2)cc1)Nc1ccc2cnn(CCN3CCCC3)c2c1
Reply | 168 ng/mL

* * *

test: Concentration in plasma of mice,17 hours after administration of final dose at 30 mg/kg, twice a day; type: ADME, organism-based; design: dose 30 mg/kg; conditions: mouse, read-out: Cmax
endpoint label: concentration at 17 h (ng/mL)
One number for each entry, in ng/mL.

Ask | Look up concentration at 17 h of O=C(Cc1ccc(OCc2ccccc2)cc1)Nc1ccc2cnn(CCN3CCCC3)c2c1 and report it.
Reply | 2.23
